Target: PI3Kδ (p110δ/p85α) (Homo sapiens (Human), UniProt O00329)
Sequence (O00329 whole entry, species assumed): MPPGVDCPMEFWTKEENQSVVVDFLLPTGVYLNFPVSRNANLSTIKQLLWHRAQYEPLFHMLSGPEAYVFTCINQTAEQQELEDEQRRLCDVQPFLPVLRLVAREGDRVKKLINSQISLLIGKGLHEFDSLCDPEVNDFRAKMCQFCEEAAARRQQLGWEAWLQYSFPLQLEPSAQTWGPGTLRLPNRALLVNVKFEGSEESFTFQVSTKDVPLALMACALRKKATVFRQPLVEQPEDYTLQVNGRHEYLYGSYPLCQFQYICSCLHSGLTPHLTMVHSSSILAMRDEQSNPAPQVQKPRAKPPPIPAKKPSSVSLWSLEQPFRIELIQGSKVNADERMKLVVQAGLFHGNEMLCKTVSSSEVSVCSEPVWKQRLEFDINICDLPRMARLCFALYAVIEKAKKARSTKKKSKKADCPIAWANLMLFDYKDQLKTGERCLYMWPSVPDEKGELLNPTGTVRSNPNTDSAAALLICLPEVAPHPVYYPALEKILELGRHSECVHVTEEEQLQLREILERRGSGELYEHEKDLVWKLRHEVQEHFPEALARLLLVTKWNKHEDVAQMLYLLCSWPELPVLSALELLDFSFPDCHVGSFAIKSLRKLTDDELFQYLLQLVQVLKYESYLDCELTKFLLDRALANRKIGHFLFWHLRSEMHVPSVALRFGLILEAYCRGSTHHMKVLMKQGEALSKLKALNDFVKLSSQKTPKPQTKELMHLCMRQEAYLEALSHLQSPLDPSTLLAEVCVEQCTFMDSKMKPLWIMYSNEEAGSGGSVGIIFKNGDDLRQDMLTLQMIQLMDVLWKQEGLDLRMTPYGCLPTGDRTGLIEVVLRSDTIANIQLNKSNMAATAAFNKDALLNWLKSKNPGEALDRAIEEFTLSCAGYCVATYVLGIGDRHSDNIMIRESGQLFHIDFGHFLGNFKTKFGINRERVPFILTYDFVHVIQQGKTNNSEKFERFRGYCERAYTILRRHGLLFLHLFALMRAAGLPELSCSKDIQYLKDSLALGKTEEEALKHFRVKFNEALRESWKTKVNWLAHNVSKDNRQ
Sequence (P27986 whole entry partner, species assumed): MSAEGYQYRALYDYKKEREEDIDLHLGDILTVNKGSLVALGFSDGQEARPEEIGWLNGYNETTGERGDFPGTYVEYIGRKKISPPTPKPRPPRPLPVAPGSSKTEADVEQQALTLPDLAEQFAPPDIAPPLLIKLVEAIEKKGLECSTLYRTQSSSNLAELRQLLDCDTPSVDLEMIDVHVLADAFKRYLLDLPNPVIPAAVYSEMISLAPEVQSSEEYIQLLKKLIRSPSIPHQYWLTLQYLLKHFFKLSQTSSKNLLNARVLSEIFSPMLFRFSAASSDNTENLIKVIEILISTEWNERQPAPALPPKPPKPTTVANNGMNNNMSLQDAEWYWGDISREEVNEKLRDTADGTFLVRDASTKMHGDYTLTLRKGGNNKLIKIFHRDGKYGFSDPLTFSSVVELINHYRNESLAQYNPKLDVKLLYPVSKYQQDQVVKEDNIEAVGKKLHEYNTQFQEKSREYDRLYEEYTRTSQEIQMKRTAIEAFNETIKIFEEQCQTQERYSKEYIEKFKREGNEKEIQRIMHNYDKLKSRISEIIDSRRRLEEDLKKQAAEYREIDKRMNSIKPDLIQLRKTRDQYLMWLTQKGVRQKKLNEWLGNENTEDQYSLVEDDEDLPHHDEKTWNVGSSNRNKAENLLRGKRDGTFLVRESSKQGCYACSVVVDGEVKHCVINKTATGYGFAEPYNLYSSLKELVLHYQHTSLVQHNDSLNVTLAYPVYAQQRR
Test: PI3Kδ Scintillation Proximity Assay (Assay A3)
Type: biochemical
Settings: column b, Assay A3 (SPA), 20 μM ATP
Structures can show the parent of a compound that is named as a salt.
We begin with a simple list: items and their reported IC50.

Some solved cases for reference:
CC(Nc1nc(N)nc2[nH]cnc12)c1nc2ccccn2c(=O)c1-c1cc(F)cc(F)c1 (stereo not drawn) [Example 80, trifluoroacetic acid salt]; 100 to 500 nM
Cc1cccc2nc(C(C)Nc3nc(N)nc4[nH]cnc34)c(-c3ccc(Cl)cc3)c(=O)n12 (stereo not drawn) [Example 56, trifluoroacetic acid salt]; > 500 nM
Cc1csc2nc(C(C)Nc3ncnc4[nH]cnc34)c(-c3cc(F)cc(F)c3)c(=O)n12 (stereo not drawn); < 50 nM
CCC(Nc1ncnc2[nH]cnc12)c1nc2cccc(C)n2c(=O)c1-c1cc(F)cc(F)c1 (stereo not drawn); 50 to 100 nM
Cc1cccc2nc(C(C)Nc3ncnc4[nH]cnc34)c(-c3cccc(F)c3F)c(=O)n12 (stereo not drawn) [Example 66, trifluoroacetic acid salt]; < 50 nM

Let us move to another entry and its IC50.
Prompt line: I have this compound here, Cc1cccc2nc(C(C)Nc3nc(N)nc4[nH]cnc34)c(-c3cccc(F)c3)c(=O)n12 (single isomer, unassigned) [Example 74, trifluoroacetic acid salt] , and I need its recorded IC50.
Response line: < 50 nM
